system: Mycobacterium tuberculosis; experiment: Cornell M. t heat shock assay; type: functional, organism-based; conditions: Mycobacterium tuberculosis
pIC50: −log10 of the molar value.
quantity: pIC50

Worked cases, pIC50 given:
# molecule, experimentalValue
data = [
    ("CCN1c2ccc(-c3cncn3CC(=O)NC(C)(C)C)cc2CC1C (stereo not drawn)", "< 4.00"),
    ("Cc1cc2ccccc2n1CCC(=O)N1CCN(C)CC1C(N)=O (stereo not drawn)", "< 4.00"),
]

Now take the following molecule into account.
Identify the measured pIC50 of Cc1c(CN(C)c2cc(C3CCCNC3)ncn2)[nH]c2ccccc12 (stereo not drawn) for Mycobacterium tuberculosis.
< 4.00

----------
experiment: microbe, parasite or virus in culture; details: Mycobacterium tuberculosis, 96 h, read-out: pIC50 (converted)
quantity: IC50

Which IC50 is listed for `CNc1nnc(-c2ccccc2)s1` ?
> 501 µM

How about this molecule: `CN(C)c1ncnc2c1CCN(c1cccc(F)c1)CC2`
> 50.1 µM

----------
target: Coenzyme A biosynthesis bifunctional protein CoaBC (Mycobacterium tuberculosis (strain ATCC 25618 / H37Rv)); test: Biomol Green assay for MtCoaBC inhibitor, OD650 read
Sequence (P9WNZ1 whole entry): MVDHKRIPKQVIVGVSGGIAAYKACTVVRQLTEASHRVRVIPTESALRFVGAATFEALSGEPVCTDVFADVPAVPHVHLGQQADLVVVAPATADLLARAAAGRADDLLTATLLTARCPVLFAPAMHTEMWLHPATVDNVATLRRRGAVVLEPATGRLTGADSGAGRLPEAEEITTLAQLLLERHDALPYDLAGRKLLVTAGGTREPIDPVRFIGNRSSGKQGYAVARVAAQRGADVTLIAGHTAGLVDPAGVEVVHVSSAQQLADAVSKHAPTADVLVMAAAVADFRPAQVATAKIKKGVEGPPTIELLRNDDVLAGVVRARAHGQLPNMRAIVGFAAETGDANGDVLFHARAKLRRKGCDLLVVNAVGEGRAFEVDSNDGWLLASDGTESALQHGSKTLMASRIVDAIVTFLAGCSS
pIC50: −log10 of the molar value.
quantity: pIC50

Worked cases, pIC50 given:
# molecule, pIC50
data = [
    ("Cc1noc([C@@H]2C[C@H](NS(=O)(=O)Cc3ccccc3)CN2C)n1", "< 4.52"),
    ("O=C(NCc1ccon1)c1c(F)cc(Br)cc1F", "< 4.52"),
    ("c1ccc(CCN2CCCC2c2cccc(Nc3nccs3)n2)cc1 (centres undefined)", "< 4.52"),
    ("Cn1cnc2cc(NC(=O)c3n[nH]c4c3CCC4)ccc21", "< 4.52"),
    ("CC(C)c1noc(CN2CCN(C(=O)c3cccnc3O)CC2)n1", "< 4.52"),
    ("Cc1cc(NC(=O)CN2CCN(c3nccs3)C(C)C2)no1 (centres undefined)", "< 4.52"),
    ("COc1ccc(-n2c(CCC(=O)O)nc3ccccc32)cc1CO", "< 4.30"),
    ("CN1CCOC[C@H]1c1nc(-c2ccc(F)cc2F)c[nH]1", "< 4.52"),
]

Now take the following molecule into account.
Which pIC50 is listed for Cn1cc(CN2CCCC(c3nccnc3-c3cccc(F)c3)C2)cn1 (centres undefined) ?
< 4.52

----------
assay: In vitro enzyme assay to detect hydrolysis of chlorophenol red-beta-D-[…] directly proportional to the number of Toxoplasma stably expressing beta-galactosidase; format: functional, organism-based, Toxoplasma gondii; details: Toxoplasma gondii
# IC50 listing for each entry below

Worked cases, IC50 given:
# molecule, IC50
records = [
    ("COc1cc(Br)c(CN)cc1OC", "> 50.1 µM"),
    ("NCC1Cc2cc(Oc3cc(F)c(CN4CCCC4)c(F)c3)ccc2O1 (configuration not stated)", "20.4 µM"),
    ("O=C(Nc1nccs1)c1csc(NC2CCCC2)n1", "4.36 µM"),
]

Now take the following molecule into account.
Which IC50 is listed for `COc1c(C(=O)NCc2cccnc2)nnn1Cc1ccccc1` ?
> 50.1 µM

----------
# IC50 listing for each entry below
experiment: microbe, parasite or virus in culture; conditions: Mycobacterium tuberculosis, 96 h, read-out: pIC50 (converted)

Worked cases, IC50 given:
# inputSmiles, experimentalValue
rows = [
    ("COc1ccc2nnc(C(=O)NCC3CCCC3)nc2c1", "> 50.1 µM"),
    ("Nc1ncnc2[nH]c(N3CCCCC3)nc12", "> 50.1 µM"),
]

Now take the following molecule into account.
Which IC50 is listed for `O=C(c1cnsn1)N1CCN(Cc2ccc(Cl)s2)CC1` ?
71 µM

----------
test: microbe, parasite or virus in culture; settings: Mycobacterium tuberculosis, 96 h, read-out: pIC50 (converted)
So basically, if IC50 comes in under 40 µM it's 1.0, and if it's 40 µM or more it's 0.0.

# compound, label
records = [
    ("Cc1cc2nc(C(C)C)cc(N(C)CC3CCCN3C)n2n1 (stereo not given)", 0.0),
    ("COc1ccc(CCN)c(OC)c1", 0.0),
    ("NC(=O)c1cc(C2CCCN(C(=O)CCc3ccncc3)C2)n[nH]1 (stereo not given)", 0.0),
    ("NC(=O)C1(c2cnccn2)CCCN1C(=O)Cc1ccsc1 (stereo not given)", 0.0),
    ("COCCN(Cc1ccoc1)S(=O)(=O)c1ccc(F)c(Cl)c1", 0.0),
    ("CC(C)CCN1Cc2c(C(=O)O)ncn2-c2ccccc2S1(=O)=O", 0.0),
    ("CCc1ncc(CN(CCc2ccccc2)Cc2cccs2)cn1", 1.0),
    ("N#Cc1cc(F)c(NCCc2ccc(F)cc2)c(F)c1", 1.0),
]

Take the compound `CNc1cc(C)nc(NCc2cc(C)cc3c(C)c(C)[nH]c23)n1` and say whether its IC50 is less than 40 µM.
1.0

----------
test: microbe, parasite or virus in culture; conditions: Mycobacterium tuberculosis, 96 h, read-out: pIC50 (converted)
# IC50 listing for each entry below
Give the number; µM is assumed, so skip it.

Worked cases, IC50 given:
# compound, quantity, unit, experimentalValue
measured = [
    ("O=C(c1cc(C2CC2)on1)N1CCC(Oc2ncccc2Cl)CC1", "IC50", "µM", 24.9),
    ("CN(C)C(=O)c1csc(N2CCCCC2)n1", "IC50", "µM", 58.7),
    ("COC(=O)C(NC(=O)c1ccc(NC2CC2)nc1)c1ccccc1 (configuration not stated)", "IC50", "µM", 21.9),
    ("COC[C@H]1CCCN1c1nccc(-c2cnn(-c3ccccc3C)c2)n1", "IC50", "µM", 43.3),
    ("CCCn1cc(CNc2nc(C3CC3)no2)cn1", "IC50", "µM", 151),
]

Which IC50 is listed for `COC(=O)c1ccc(COc2ccccc2CO)o1` ?
250

How about this compound: OC(CN1CCOC2(CCCC2)C1)c1ccccc1 (configuration not stated)
172

How about this compound: CC(O)(CNc1ncccc1F)C1CCCC1 (configuration not stated)
262

----------
test: microbe, parasite or virus in culture; conditions: Mycobacterium tuberculosis, 96 h, read-out: pIC50 (converted)
# IC50 listing for each entry below

Worked cases, IC50 given:
# molecule, experimentalValue
rows = [
    ("O=C(Nc1cc(F)cc(F)c1)c1ccncc1", "> 501 µM"),
    ("Cc1cc(NC(C)CN2CCOCC2)ncc1Br (stereo unspecified)", "> 501 µM"),
    ("Cc1cnn(CCNCc2cccc3c2OCO3)c1", "> 501 µM"),
    ("CCCOc1ccc(NS(=O)(=O)N(C)C)cc1Cl", "> 501 µM"),
    ("COc1cc(CCC(=O)N2CCC(c3cc4nccnc4[nH]3)CC2)on1", "> 50.1 µM"),
]

Now take the following molecule into account.
Which IC50 is listed for `Cc1ccc2[nH]c(=O)cc(C(=O)NCCCn3nccc3C3CC3)c2c1` ?
> 50.1 µM

----------
system: Schistosoma mansoni; test: High throughput screening of compounds against Schistosoma mansoni motility; assay type: functional; parameters: dose or concentration left out as unconfirmed
quantity: Percent Effect (%)
Give the number; % is assumed, so skip it.

# compound, Percent Effect (%)
data = [
    ("O=C1CCSCC(C(=O)N2CCCC2)N1 (stereo not drawn)", -27.13),
    ("COc1ccc(C2CCCN2S(=O)(=O)N(C)CC(C)C)cc1 (stereo not drawn)", 29.94),
    ("Cl.Cl.OC(CN1CCN(Cc2ccc(F)c(F)c2)CC1)C1CC1 (stereo not drawn)", -57.04),
]

Which Percent Effect is listed for O=C(NCC(O)c1cccs1)c1cccc(Cl)c1 (stereo not drawn) ?
-28.05

How about this compound: `Cn1ncc2c(NCCOc3ccc(F)cc3)nc(C3CCCC3)nc21`
106.6

----------
test: microbe, parasite or virus in culture; details: Mycobacterium tuberculosis, 72 h, read-out: pIC50 (converted)
# IC50 listing for each entry below

# molecule, quantity, experimentalValue
rows = [
    ("CCCN(CCn1c(=O)oc2ccccc21)CC1CC1", "IC50", "> 50.1 µM"),
    ("CC(C)c1cc(C(=O)N2CC[C@@H](N)C2)nn1C(C)(C)C", "IC50", "> 501 µM"),
    ("CCN1CCN(C(=O)c2ccc(C)c(C)c2)CC1", "IC50", "> 501 µM"),
]

Which IC50 is listed for `CCN(C)Cc1nc(-c2ccccc2NS(C)(=O)=O)oc1C` ?
> 50.1 µM

How about this molecule: `COc1c(Br)cccc1CCNC(=O)c1csnn1`
> 50.1 µM

How about this molecule: `CN1Cc2cc(-c3csc(N)n3)ccc2NC1=O`
> 501 µM

How about this molecule: O=c1c2ccccc2nc2n1C(CSc1ccc(F)cc1)CN2 (stereo not given)
> 50.1 µM

How about this molecule: O=C(Cc1ccc(-n2cccn2)cc1)N1CCCC(n2cccn2)C1 (stereo not given)
> 50.1 µM

How about this molecule: `O=C(NCc1n[nH]c2c1CCCCC2)c1cnn2c1CCCC2`
> 50.1 µM

How about this molecule: `O=C(CC1CC1)N[C@@H]1CN(Cc2ccoc2)C[C@@H]2CCCO[C@@H]21`
> 50.1 µM
